# pKa per record follows
# assay method text: Dissociation constant, pKa in deuterated water solution
# Type: physicochemical
# condition description: read-out: Apparent_pKa
Give the figure only, with no unit attached.

* O[C@@H](Cn1ccnc1)[C@@H](O)Cn1ccnc1 | 6.56
* OC(Cn1ccnc1)Cn1ccnc1 | 6.45

Entry O[C@@H]([C@H](O)[C@H](O)Cn1ccnc1)[C@H](O)Cn1ccnc1 has what pKa?
7
